These measurements were taken from the RNAGym collection of RNA variant scans (doi:10.7554/elife.80360).

B1: CPEB3 Ribozyme (parent)
chain: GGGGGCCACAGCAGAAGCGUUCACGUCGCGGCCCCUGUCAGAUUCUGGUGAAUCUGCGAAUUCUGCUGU

Variants of: B1
PROTOCOL_NOTES: self-cleavage, relative activity (ratio to wild type); higher = more cleavage; co-transcriptional
What self-cleavage was measured for each of the following?
Please reply with the number alone, leaving off any unit.

Q: Let me know recorded self-cleavage for C12A U67A , thanks.
Result: 0.671

Q: Let me know recorded self-cleavage for G17U A60G , thanks.
Result: 0.248

Q: Let me know recorded self-cleavage for G3U A8U , thanks.
Result: 0.121

Q: Let me know recorded self-cleavage for C35G C57G , thanks.
Result: 0.212

Q: Let me know recorded self-cleavage for G41C G68C , thanks.
Result: 0.902

Q: Let me know recorded self-cleavage for A16C G68A , thanks.
Result: 0.61

Q: Let me know recorded self-cleavage for G17A G37C , thanks.
Result: 0.149

Q: Let me know recorded self-cleavage for G5U A60U , thanks.
Result: 0.149

Q: Let me know recorded self-cleavage for A13C G56A , thanks.
Result: 0.625

Q: Let me know recorded self-cleavage for C12U C34U , thanks.
Result: 0.959

Q: Let me know recorded self-cleavage for A16C A23C , thanks.
Result: 0.277

Q: Let me know recorded self-cleavage for U49A G68A , thanks.
Result: 1.02

Q: Let me know recorded self-cleavage for G4C U43A , thanks.
Result: 0.251

Q: Let me know recorded self-cleavage for G17C U61G , thanks.
Result: 0.205

Q: Let me know recorded self-cleavage for C24U G48A , thanks.
Result: 0.815

Q: Let me know recorded self-cleavage for C12U U67G , thanks.
Result: 0.938

Q: Let me know recorded self-cleavage for C24A G56C , thanks.
Result: 0.31

Q: Let me know recorded self-cleavage for G1U C66A , thanks.
Result: 0.0594

Q: Let me know recorded self-cleavage for A23U G41A , thanks.
Result: 0.821

Q: Let me know recorded self-cleavage for G5C C63A , thanks.
Result: 0.119

Q: Let me know recorded self-cleavage for U21G C22G , thanks.
Result: 0.227

Q: Let me know recorded self-cleavage for U36C U67G , thanks.
Result: 0.949

Q: Let me know recorded self-cleavage for U44A C45G , thanks.
Result: 0.983

Q: Let me know recorded self-cleavage for C35G G58C , thanks.
Result: 0.295

Q: Let me know recorded self-cleavage for G14C G47U , thanks.
Result: 0.725

Q: Let me know recorded self-cleavage for U36C G37C , thanks.
Result: 0.237

Q: Let me know recorded self-cleavage for G37U G56A , thanks.
Result: 0.28

Q: Let me know recorded self-cleavage for C7A G31A , thanks.
Result: 0.499

Q: Let me know recorded self-cleavage for G4A G31C , thanks.
Result: 0.148

Q: Let me know recorded self-cleavage for C33G U49A , thanks.
Result: 0.748

Q: Let me know recorded self-cleavage for G2C A15C , thanks.
Result: 0.0125

Q: Let me know recorded self-cleavage for A8C A16G , thanks.
Result: 0.962

Q: Let me know recorded self-cleavage for G14C C39G , thanks.
Result: 0.248

Q: Let me know recorded self-cleavage for U36A U46G , thanks.
Result: 0.255

Q: Let me know recorded self-cleavage for G48C C54U , thanks.
Result: 1.04

Q: Let me know recorded self-cleavage for U38G U67G , thanks.
Result: 0.273

Q: Let me know recorded self-cleavage for G3A A13U , thanks.
Result: 0.339

Q: Let me know recorded self-cleavage for C39A G65A , thanks.
Result: 0.478

Q: Let me know recorded self-cleavage for G47U C57A , thanks.
Result: 0.396

Q: Let me know recorded self-cleavage for G48U A52U , thanks.
Result: 0.969

Q: Let me know recorded self-cleavage for C22U C39G , thanks.
Result: 0.207

Q: Let me know recorded self-cleavage for U36A U38G , thanks.
Result: 0.185

Q: Let me know recorded self-cleavage for A60C U64A , thanks.
Result: 0.267

Q: Let me know recorded self-cleavage for C12G C32G , thanks.
Result: 0.334

Q: Let me know recorded self-cleavage for U38A U55A , thanks.
Result: 0.779

Q: Let me know recorded self-cleavage for U49G U64A , thanks.
Result: 0.985
